Test system: Escherichia coli
Test: Antibacterial activity against Escherichia coli NCIM 2065 after 24 hrs by disc diffusion method
Type: functional
Conditions: Escherichia coli, NCIM 2065, 24 h
Property label: MIC

Q: Please report MIC for the following molecule: `COc1cc(OC)c2c(c1)OC(CN1CCN(C)CC1)(CN1CCN(C)CC1)C2=O`
Ans: 50 µg/mL

Q: Tell us which MIC value is on record for `CCCCN(CCCC)CC1(CN(CCCC)CCCC)Oc2cc(OC)cc(OC)c2C1=O`
Ans: 25 µg/mL

Q: Identify the reported MIC for the following entry. `CCN1CCN(CC2(CN3CCN(CC)CC3)Oc3cc(OC)cc(OC)c3C2=O)CC1`
Ans: 50 µg/mL

Q: Complete the entry with MIC for `COc1cc(OC)c2c(c1)OC(CN1CCCCC1)(CN1CCCCC1)C2=O`
Ans: 25 µg/mL

Q: Input `CCN(C)CC1(CN(C)CC)Oc2cc(OC)cc(OC)c2C1=O` , output reported MIC.
Ans: > 100 µg/mL

Q: Fill in MIC for record `COc1cc(OC)c2c(c1)OC(CN1CCOCC1)(CN1CCOCC1)C2=O`
Ans: 25 µg/mL

Q: Give the measured MIC for `COc1cc(OC)c2c(c1)OC(CN1CCCC1)(CN1CCCC1)C2=O`
Ans: 25 µg/mL

Q: Give recorded MIC. `CCN(CC)CC1(CN(CC)CC)Oc2cc(OC)cc(OC)c2C1=O`
Ans: 25 µg/mL

Q: Tell me measured MIC for `COc1cc(OC)c2c(c1)OC(CN(C)C)(CN(C)C)C2=O` please.
Ans: 50 µg/mL

====

System: Candida albicans
Experiment: Antifungal activity against Candida albicans NCIM 3100 after 72 hrs by disc diffusion method
Type: functional
Property label: inhibition zone (IZ) (mm)
Write it as a number; the unit mm goes unstated.

Q: Indicate its recorded inhibition zone (IZ); the molecule in question is `CCCCN(CCCC)CC1(CN(CCCC)CCCC)Oc2cc(OC)cc(OC)c2C1=O`
Ans: 17

Q: Assign inhibition zone (IZ) to the following record: `OC(Cn1cncn1)(Cn1cncn1)c1ccc(F)cc1F`
Ans: 24

Q: # return recorded inhibition zone (IZ) for input `COc1cc(OC)c2c(c1)OC(CN(C)C)(CN(C)C)C2=O`
Ans: 16

Q: Provide only the value of recorded inhibition zone (IZ) for `COc1cc(OC)c2c(c1)OC(CN1CCOCC1)(CN1CCOCC1)C2=O`
Ans: 15

Q: Identify inhibition zone (IZ) associated with the molecule `CCN1CCN(CC2(CN3CCN(CC)CC3)Oc3cc(OC)cc(OC)c3C2=O)CC1`
Ans: 13

Q: Give the reported inhibition zone (IZ) for this molecule. `COc1cc(OC)c2c(c1)OC(CN1CCCC1)(CN1CCCC1)C2=O`
Ans: 14

Q: Specify inhibition zone (IZ) for `CCN(CC)CC1(CN(CC)CC)Oc2cc(OC)cc(OC)c2C1=O` and stop.
Ans: 16

====

System: Proteus vulgaris
Assay: Antibacterial activity against Proteus vulgaris NCIM 2813 after 24 hrs by disc diffusion method
Format: functional
Settings: Proteus vulgaris, NCIM 2813, 24 h
Property label: MIC (µg/mL)
Provide only the numeric value, understood in µg/mL.

Q: Look up and state reported MIC for `COc1cc(OC)c2c(c1)OC(CN(C)C)(CN(C)C)C2=O`
Ans: 50

Q: Provide only the value of recorded MIC for `CCN(CC)CC1(CN(CC)CC)Oc2cc(OC)cc(OC)c2C1=O`
Ans: 25

Q: Complete the entry with MIC for `COc1cc(OC)c2c(c1)OC(CN1CCCC1)(CN1CCCC1)C2=O`
Ans: 25

Q: Identify MIC associated with the compound `COc1cc(OC)c2c(c1)OC(CN1CCCCC1)(CN1CCCCC1)C2=O`
Ans: 50

Q: Consider the compound `CCCCN(CCCC)CC1(CN(CCCC)CCCC)Oc2cc(OC)cc(OC)c2C1=O` . State its measured MIC.
Ans: 25

Q: For the compound `COc1cc(OC)c2c(c1)OC(CN1CCN(C)CC1)(CN1CCN(C)CC1)C2=O` , give its reported MIC.
Ans: 25

Q: Please report the measured MIC for `COc1cc(OC)c2c(c1)OC(CN1CCOCC1)(CN1CCOCC1)C2=O`
Ans: 25

Q: Give a short answer stating reported MIC for `CCN1CCN(CC2(CN3CCN(CC)CC3)Oc3cc(OC)cc(OC)c3C2=O)CC1` .
Ans: 50
